Na overview
# Organism: Rattus norvegicus
# assayInfo: Open TG-GATES - Regimen: Daily Repeat
# Format: toxicity, organism-based, Sprague-Dawley
# Design: regimen Daily Repeat, gender Male, age 6 weeks
# measurementSetup: in vivo, po, 0 mg/kg, […], tissue Plasma, route gavage, dose level Control, time 7 day
Report as a plain number; the unit meq/L is understood.

Below, each entry is followed by its recorded Na result.
Give its Na value. Item: COc1ccc([C@@H]2Sc3ccccc3N(CCN(C)C)C(=O)[C@@H]2OC(C)=O)cc1
143.8

Quick check: Na of CCO ?
141.4

What Na value was documented for this molecule, O=c1ccc2ccccc2o1 ?
138.6

Consider the molecule CCCCNC(=O)NS(=O)(=O)c1ccc(C)cc1 [TOLBUTAMIDE] and give its measured Na.
142.2

Request the reported Na associated with CN(CCOc1ccc(CC2SC(=O)NC2=O)cc1)c1ccccn1.O=C(O)/C=C\C(=O)O (stereo unspecified) [ROSIGLITAZONE MALEATE]
140

---
What value of Na has been reported for the following molecule? CC(=O)[C@@]1(O)CC[C@H]2[C@@H]3C=C(Cl)C4=CC(=O)CC[C@]4(C)[C@H]3CC[C@@]21C
140.6
